Data origin, for the record: patent US20260242735A1

Mean % WT Binding for assorted binders
TARGET_OR_TEST_SYSTEM: human CD33 G34A (human, UniProt P20138 18-364)
Sequence (P20138 18-364 G34A limits assumed): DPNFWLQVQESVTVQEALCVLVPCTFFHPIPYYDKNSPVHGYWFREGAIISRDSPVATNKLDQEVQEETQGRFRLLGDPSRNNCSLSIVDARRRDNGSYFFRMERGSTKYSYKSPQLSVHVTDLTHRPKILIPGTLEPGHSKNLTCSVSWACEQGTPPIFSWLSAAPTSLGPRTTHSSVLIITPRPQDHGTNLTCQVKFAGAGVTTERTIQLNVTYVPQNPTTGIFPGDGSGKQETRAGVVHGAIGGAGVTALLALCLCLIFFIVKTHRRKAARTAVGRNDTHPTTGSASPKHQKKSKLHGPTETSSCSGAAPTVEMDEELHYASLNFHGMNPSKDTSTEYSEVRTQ
MEASUREMENT_PROTOCOL: alanine scan, flow cytometry;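 further: HEK293-T cells transiently expressing single-residue alanine mutants of CD33 (alanine swapped to serine), antibody binding read by fluorescence in duplicate, background-subtracted, expressed relative to wild-type CD33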
MEASURED_QUANTITY: Mean % WT Binding (% WT)

{"BINDER": "Refmab #3 (antibody, V domains shown, Full-length format is human IgG1 Fc silent (PG-LALA); The alanine scan used IgG or Fab) VH: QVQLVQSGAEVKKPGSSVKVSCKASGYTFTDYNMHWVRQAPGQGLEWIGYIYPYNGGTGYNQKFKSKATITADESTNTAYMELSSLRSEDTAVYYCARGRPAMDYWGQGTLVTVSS VL: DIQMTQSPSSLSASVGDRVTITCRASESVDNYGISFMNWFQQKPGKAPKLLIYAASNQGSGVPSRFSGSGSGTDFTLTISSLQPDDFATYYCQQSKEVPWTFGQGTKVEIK", "MEASURED_QUANTITY": "Mean % WT Binding", "EXPERIMENTAL_VALUE": 99.4}
{"BINDER": "Refmab #4 (antibody, V domains shown, Full-length format is human IgG1 Fc silent (PG-LALA); The alanine scan used IgG or Fab) VH: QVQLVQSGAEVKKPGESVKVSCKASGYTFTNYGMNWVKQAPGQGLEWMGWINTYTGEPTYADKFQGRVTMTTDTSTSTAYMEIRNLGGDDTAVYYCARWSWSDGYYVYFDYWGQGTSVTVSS VL: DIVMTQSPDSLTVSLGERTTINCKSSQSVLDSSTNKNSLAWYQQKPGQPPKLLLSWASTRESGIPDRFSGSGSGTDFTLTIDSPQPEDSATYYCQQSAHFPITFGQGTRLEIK", "MEASURED_QUANTITY": "Mean % WT Binding", "EXPERIMENTAL_VALUE": 93.4}
{"BINDER": "Refmab #2 (antibody, V domains shown, Full-length format is human IgG1 Fc silent (PG-LALA); The alanine scan used IgG or Fab) VH: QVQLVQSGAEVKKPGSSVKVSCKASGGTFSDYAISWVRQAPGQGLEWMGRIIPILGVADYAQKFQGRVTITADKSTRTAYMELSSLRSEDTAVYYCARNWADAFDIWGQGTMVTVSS VL: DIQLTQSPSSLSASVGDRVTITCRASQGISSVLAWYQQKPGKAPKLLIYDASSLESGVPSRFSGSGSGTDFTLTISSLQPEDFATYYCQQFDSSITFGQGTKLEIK", "MEASURED_QUANTITY": "Mean % WT Binding", "EXPERIMENTAL_VALUE": 105}
{"BINDER": "Refmab #1 (antibody, V domains shown, Full-length format is human IgG1 (Absolute Antibody Ab00283-10.0); The alanine scan used IgG or Fab; also called hP67.6) VH: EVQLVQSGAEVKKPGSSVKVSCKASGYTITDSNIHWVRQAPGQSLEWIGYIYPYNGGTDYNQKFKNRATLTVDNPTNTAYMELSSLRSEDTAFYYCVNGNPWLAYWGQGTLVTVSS VL: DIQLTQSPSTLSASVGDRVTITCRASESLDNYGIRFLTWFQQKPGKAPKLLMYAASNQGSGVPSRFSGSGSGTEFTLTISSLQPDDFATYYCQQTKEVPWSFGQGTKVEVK", "MEASURED_QUANTITY": "Mean % WT Binding", "EXPERIMENTAL_VALUE": 99.5}
